Just for reference, ChEMBL document CHEMBL3507680 is where these values come from.

- ASSAY DETAILS: Human HepG2 cell viability assay in 384 well format
- Type: toxicity, cell-based
- Design: dose 125 nL, time 70.5 hour; concentration not given beside the values
- CONDITION DETAILS: HepG2 cells, read-out: Inhibition
READOUT LABEL: cytotoxicity at 70.5 h (%)
Numbers only, in %.

Some molecules with recorded cytotoxicity at 70.5 h:
CCn1ncc2c(C(F)(F)F)cc(-c3ccn(C)n3)nc21	-8.47
Cc1nc(CNC(=O)C(C)(C)c2ccc(F)cc2)no1	0.937
CC(C)CC(=O)N1CCN(Cc2csc(-c3ncccn3)n2)CC1	-5.3

Go through the list and state cytotoxicity at 70.5 h for each entry.
1. COc1ccc(-c2csc(-c3cccc(C(=O)O)c3)n2)cc1OC
2. O=C(c1cccs1)N1CCCC(c2cc(C(F)F)n3ncnc3n2)C1 (configuration not stated)
3. Cn1cnc2nc3n(c2c1=O)CCC3
4. COc1ncc(C(=O)N2CCC3(CC2)C(=O)Nc2ccccc23)cn1
5. c1cnc(-c2nc(CN3CCCC(Cn4cncn4)C3)cs2)nc1 (configuration not stated)
6. COc1ccc(C2CCCCCN2S(C)(=O)=O)cc1 (configuration not stated)
7. CC(C)NC(=O)NCCn1cnc(C2CCCC2)cc1=O

**Result**
[-9.98, 0.957, 13.6, 0.417, -11, 1.84, -6.52]

Quick request: cytotoxicity at 70.5 h for each listed item, please.
1. CCn1cc(S(=O)(=O)N(C)Cc2c(Br)cnn2CC)c(C)n1
2. CCc1nnc2n1CCN(CC(=O)Nc1cc(C(C)(C)C)nn1C)C2

**Result**
[1.71, 0.0813]

###

For each of the compounds below, state its cytotoxicity at 70.5 h.
- ASSAY DETAILS: Human HepG2 cell viability assay in 384 well format
- Format: toxicity, cell-based
- Set-up: dose 125 nL, time 70.5 hour; concentration not given beside the values
- CONDITION DETAILS: HepG2 cells, read-out: Inhibition
Answers are plain numbers, in %.

Could you tell me cytotoxicity at 70.5 h for each of these compounds? They are listed below.
1. CN(C)S(=O)(=O)N(Cc1cscn1)c1ccccc1
2. CCOc1ccc2nc(CN3CCC(CNC(C)=O)C3)ccc2c1 (stereo not drawn)

**Result**
12.4
1.6

###

- ASSAY DETAILS: Human HepG2 cell viability assay in 384 well format
- Type: toxicity, cell-based
- Parameters: dose 125 nL, time 70.5 hour; concentration not given beside the values
- CONDITION DETAILS: HepG2 cells, read-out: Inhibition
READOUT LABEL: cytotoxicity at 70.5 h (%)
Numbers only, in %.

Example entries and their recorded answers appear below.
c1cnc(-c2nc(CN3CCn4c(nnc4C4CC4)C3)cs2)nc1	-9.61
Cn1cc(-c2ncnc3c2CCN(CC2CCOC2)CC3)cn1 (stereo not given)	-7.49
O=S1(=O)c2ccccc2C2(CCN(Cc3ccccc3)C2)N1CC1CC1 (stereo not given)	-5.62
CCC1CN(Cc2cccc(C(=O)N(C)C)c2)CCN1CCOC (stereo not given)	-8.03
Cc1c(F)cc(C(=O)O)cc1S(=O)(=O)Nc1cccc(C(F)F)c1	-10.3

Go through the items and report each one's cytotoxicity at 70.5 h.
1. Cc1nonc1CN1CC[C@@](O)(C2CCC2)[C@H](C)C1
2. Cc1cc(CN2CCN(CC(O)c3ccccc3)CC2)no1 (stereo not given)
3. Cc1nc(N2CCC(CN3CCCC3)CC2)c2cnn(C)c2n1
4. COCCCNc1c(-c2ccc(Cl)cc2)c(=O)c1=O
5. Cc1cc(C(=O)N2CCc3nc(C4CCCCN4)ncc3C2)cs1 (stereo not given)
6. CCCN(C)C(=O)Nc1ccc(C(=O)NCCC(=O)OC)cc1

**Result**
1. -3.97
2. 0.624
3. -2.49
4. 6.7
5. -7.25
6. -6.01

Required: cytotoxicity at 70.5 h, one value per compound below.
1. CC(C)n1ccnc1C1CCN(C(=O)N2CCCC2)CC1
2. Cc1cncnc1C1CCN(CCO)CC1
3. CC(C)n1cnnc1Cn1c(=O)ccc2ccccc21
4. CC(C)N(C)Cc1cnc2n1CCN(C(=O)Cc1ccsc1)C2
5. Cc1ccc(C(=O)N2Cc3c(CN4CCCCC4)nn(C)c3C2)cc1C
6. O=C(C1CCOC1)N1CCN(Cc2cccnc2)c2ncccc2C1 (stereo not given)

**Result**
-9.54
-7.32
-2.43
3.66
-16.2
-7.36

Parameters: items (list). Returns: cytotoxicity at 70.5 h for each item.
1. CCS(=O)(=O)N1Cc2nccn2CC(CN2CCCC2)C1 (stereo not given)
2. CC(C)C(C)(C#N)NC(=O)Cn1nnc(-c2cc3ccccc3o2)n1 (stereo not given)

**Result**
[4.02, 18.2]
